Reference source: PubChem BioAssay AID504660

- assay_system: D(1A) dopamine receptor (Homo sapiens)
- assay_overview: Allosteric Agonists of the Human D1 Dopamine Receptor: qHTS; note: 0% is about no effect
- assay_context: HEK293 T-REx D1 cells, calcium flux, agonist mode; at 2 µM
- Description: NIH Chemical Genomics Center [NCGC] NIH Molecular Libraries Probe Centers Network [MLPCN] […] Freshly passaged cells are plated in 1536 well black, clear bottom plates at a density of 4000 cells/well in 3 ul of complete media containing 1x tetracycline inducer. […] Agonist read: A 10 cycle (1 second/cycle) baseline measurement is taken and then the FDSS online 1536 pintool delivers 23 nl of compound library (as well as dopamine controls) to the plate. […]
About 3,700 (1%) of roughly 360,000 compounds were called active. Cut-off read from the data, not from the text of the source: active = activation above about 30%; inactive = the rest. The list comes from a sample in which actives are over-represented; it also holds close analogues and randomly drawn compounds.
Parameter call: string, one of Y (active), N (inactive)

Sample answers from the record:
# record_smiles, assigned_class
measured = [
    ("Cc1cccc(NC(=O)N2CCCCCC2)c1C", "N"),
    ("Cc1cccc(NC(=O)N2CCN(C)c3ncccc32)c1C", "Y"),
]

Attention now shifts to the item below.
Incoming: // return assay outcome for COc1ccc(NC(=O)CN2CCCN(Cc3ccccc3)S2(=O)=O)cc1
Outgoing: N

----------
- assay_system: D(1A) dopamine receptor (Homo sapiens) (UniProt P21728)
- Sequence (P21728 whole entry, looked up): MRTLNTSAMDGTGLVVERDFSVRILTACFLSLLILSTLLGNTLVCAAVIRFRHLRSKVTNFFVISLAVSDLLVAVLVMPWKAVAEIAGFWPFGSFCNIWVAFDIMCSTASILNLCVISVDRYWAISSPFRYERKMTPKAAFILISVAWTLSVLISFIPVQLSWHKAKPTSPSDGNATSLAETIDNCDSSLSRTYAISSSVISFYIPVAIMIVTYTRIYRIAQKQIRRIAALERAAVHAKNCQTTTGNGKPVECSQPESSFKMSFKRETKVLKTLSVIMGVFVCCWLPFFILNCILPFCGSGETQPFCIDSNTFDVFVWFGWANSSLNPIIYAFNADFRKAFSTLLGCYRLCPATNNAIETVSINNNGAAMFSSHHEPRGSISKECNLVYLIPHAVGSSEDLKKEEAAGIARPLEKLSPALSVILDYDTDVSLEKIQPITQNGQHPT
- assay_overview: Allosteric Agonists of the Human D1 Dopamine Receptor: qHTS; note: 0% is about no effect
- assay_context: HEK293 T-REx D1 cells, calcium flux, agonist mode; at 2 µM; hits give high values
Screen size: about 360,000 compounds; about 3,700 (1%) were called active. Only a selection was taken, and actives are over-represented in it overall.
Entries annotated with measured activation

# compound, experimental_endpoint, test_value
measured = [
    ("O=C(NCCc1ccc(Cl)cc1)c1ccc2c(c1)N(Cc1ccc(F)cc1)C(=O)CS2", "activation", "-1.03% (inactive)"),
    ("O=C(CCN1C(=O)COc2ccccc21)NCCCN1CCN(c2ccc(F)cc2)CC1", "activation", "-0.0538% (inactive)"),
    ("Cc1c(CCOC(=O)c2cc([N+](=O)[O-])ccc2Cl)sc[n+]1CCCCS(=O)(=O)[O-]", "activation", "2.52% (inactive)"),
    ("O=C(NCCCN1CCN(c2ccc(F)cc2)CC1)Nc1ccc([N+](=O)[O-])cc1", "activation", "32.8% (active)"),
    ("CC(O)CNCCOc1cccc(Oc2ccccc2)c1 (stereo unspecified)", "activation", "4.04% (inactive)"),
]

Incoming: Return reported activation; argument: Cc1cc(C)c(NC(=O)C[N+](C)(C)CC(O)COc2cccc3ccccc23)c(C)c1 (stereo unspecified)
Outgoing: 62.2% (active)

Incoming: Return reported activation; argument: CCCn1nc(C(=O)N2CCCc3ccccc32)c2ccccc2c1=O
Outgoing: 0.113% (inactive)

----------
- assay_system: D(1A) dopamine receptor (Homo sapiens) (UniProt P21728)
- assay_overview: Allosteric Agonists of the Human D1 Dopamine Receptor: qHTS; note: 0% is about no effect
- assay_context: HEK293 T-REx D1 cells, calcium flux, agonist mode; at 2 µM
The campaign covered roughly 360,000 compounds. About 3,700 (1%) were called active. No stated cut-off is given here; in the data, active means activation above about 30%; inactive means the rest. Only a selection was taken, and actives are over-represented in it overall.
Parameter call: string, one of True = active, False = inactive

# molecule, assay_system, assigned_class
measured = [
    ("COc1ccc(C(=O)Nc2cccc(C(=O)OCc3cc(=O)n4c5c(sc4n3)CCCC5)c2)cc1", "D(1A) dopamine receptor (Homo sapiens) (UniProt P21728)", "False"),
]

Incoming: // return assay outcome for COc1cccc(Cn2c(SCc3ccc(C(=O)N4CCCCC4)cc3)nc3ccncc32)c1
Outgoing: False

Incoming: // return assay outcome for COc1cccc(N=C2SC(C(=O)Nc3cccc(Cl)c3)CC(=O)N2C)c1 (stereo unspecified)
Outgoing: False
